- Experimental protocol: qHTS assay to identify inhibitors of the type 1 interferon - major histocompatibility complex class I in skeletal muscle: Counter screen cell viability and HiBit confirmation (AID 1347412); further: potency means the concentration at half of the fitted maximal effect; nearly all actives have a fitted effect of over 60% in size
- Test conditions: iHSKM muscle cells + IFN-b, HiBiT or CellTiter-Glo, 24 h; HiBiT
Results filed as inconclusive are left out. The source made the active and inactive calls. The call rests on the fitted dose curve; in most records, active means well fitted inhibition curve with a large enough effect; inconclusive means small, poorly fitted or top-dose-only effect; inactive means no such curve, though single readings can be large or run the other way.
Attribute measured: Potency

Below, 3 compounds whose answers are already recorded.
> print(dat)
                                   compound  attribute.measured     reported.result
1  CCC[C@H](NC(=O)/C(C#N)=C/c1cccc(Br)n1)c1ccccc1             Potency    6.25 µM (active)
2   Cc1cc(-n2c(=O)ccc3cnc4[nH]ccc4c32)ccc1F             Potency    3.52 µM (active)
3  Cc1ccc(NC(=O)NCc2ccc3c(c2)CN(C2CCC(=O)NC2=O)C3=O)cc1Cl (centres undefined)             Potency  0.0079 µM (active)

Here is the next item to consider.
stdin: For the compound shown here, C=C1C(=O)O[C@H]2C[C@H](C)C(/C=C/C(C)=O)=CC[C@H]12 , give the reported Potency.
stdout: 3.13 µM (active)

====

- Experimental protocol: qHTS Assay for Lipid Storage Modulators (AID 1519)
- Test conditions: Drosophila S3 cells, BODIPY lipid droplet/cell ratio, laser cytometry; measured here: lipid channel max response; cells loaded with oleic acid
Results filed as inconclusive are left out.
Attribute measured: max response (%)
Lab book: enter the figure in %, no units written.

Example entries begin here.
> print(dat)
                            chemical.smiles  reported.result
1  CN(C)c1ncc2nc(-c3ccc(F)cc3)c(=O)n(Cc3cccs3)c2n1               28
2   CCNc1ncc2nc(C)c(=O)n(-c3ccc(OC)cc3)c2n1               15
3  COc1ccc(CNc2ccnc(-c3ccccc3C(F)(F)F)n2)c(OC)c1             8.88
4  COc1ncc2nc(-c3cc(F)cc(F)c3)c(=O)n(CCC#N)c2n1             25.6
5       CS(=O)(=O)N1CCC2(CC1)CN(Cc1nccs1)C2             18.5
6  CCNc1ncc2nc(-c3ccc(F)cc3)c(=O)n(CCOC)c2n1             28.8
7    COCCn1c(=O)c(C)nc2cnc(N3CCN(C)CC3)nc21             2.85
8  N#CCCn1c(=O)c(-c2ccc(F)cc2)nc2cnc(N3CCOCC3)nc21               23

stdin: What measured max response goes with c1ccc(CNc2ccnc(-c3ccoc3)n2)cc1 ?
stdout: 15

stdin: Also O=c1c(-c2cc(F)cc(F)c2)nc2cnc(N3CCNCC3)nc2n1Cc1cccs1 , if possible.
stdout: -33.5

stdin: Param item: CS(=O)(=O)N1CCC[C@@]2(CCN(C(=O)Nc3cccc(F)c3)C2)C1
stdout: 6.37

====

- Measurement target: Cytochrome P450 1A2 (Homo sapiens) (UniProt P05177)
- Sequence (P05177 whole entry, looked up): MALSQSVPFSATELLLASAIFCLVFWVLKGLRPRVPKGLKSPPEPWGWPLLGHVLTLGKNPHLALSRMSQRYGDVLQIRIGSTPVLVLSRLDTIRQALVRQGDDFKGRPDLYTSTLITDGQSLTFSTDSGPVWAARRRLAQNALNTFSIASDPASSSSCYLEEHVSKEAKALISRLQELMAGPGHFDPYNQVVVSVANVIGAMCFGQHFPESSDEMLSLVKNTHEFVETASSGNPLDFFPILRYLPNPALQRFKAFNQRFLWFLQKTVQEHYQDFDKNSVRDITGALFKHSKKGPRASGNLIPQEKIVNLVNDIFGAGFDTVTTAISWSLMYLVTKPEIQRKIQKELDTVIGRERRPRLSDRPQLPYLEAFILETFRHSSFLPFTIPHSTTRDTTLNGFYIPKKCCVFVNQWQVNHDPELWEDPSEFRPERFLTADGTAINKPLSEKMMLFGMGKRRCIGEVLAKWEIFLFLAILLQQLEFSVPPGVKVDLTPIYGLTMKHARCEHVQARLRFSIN
- Experimental protocol: p450-cyp1a2 (AID 410); further: potency means the concentration at half of the fitted maximal effect
- Test conditions: recombinant CYP1A2, luciferin-ME demethylation, luminescence; series mostly up to 57 µM
Inconclusive results are not listed. Active and inactive are the calls of the source. The call rests on the fitted dose curve.
Your answer must be one of the following: active, inactive

> print(dat)
                            chemical.smiles  label.value
1  CCNc1ncc2nc(-c3cn(C)c4ccccc34)c(=O)n(C)c2n1       active

stdin: What classification did Cc1nc2cnc(N(C)C)nc2n(C2CC2)c1=O end up with in this test?
stdout: active

stdin: // query: COc1ccc(-n2c(=O)c(C)nc3cnc(N4CCNCC4)nc32)cc1
stdout: active
